Sourced from PubChem BioAssay (NCI)

Overview of reported GI50 across a group of compounds:
system: HCC-2998 colon; experiment: NCI tumour cell line growth inhibition, 48 h

Worked cases, GI50 given:
Cc1cc(Nc2ncc(F)c(N[C@H]3[C@@H](C(N)=O)[C@@H]4C=C[C@H]3C4)n2)ccc1N1CCN(C)CC1 = 2150 nM
COc1cc(OC)cc(C2C(C#N)=C(N)Oc3c2ccc2ccc(O)cc32)c1 (stereo not drawn) = < 16.6 nM
O=C(Nc1ccc(Oc2cccc(Cl)c2)c(Cl)c1)c1cnccn1 = 5310 nM
Cc1cc(I)cc(CN(C)CCN2CCOCC2)c1O = > 80800 nM

Entry CCCCCc1c(C)[nH]c(/C=C2\N=C(c3ccc[nH]3)C=C2Oc2ccccc2)c1C , GI50 reported as 17.1 nM

Entry COc1cc2c(cc1OCCCCCN1CCN(c3cc(=O)oc4ccccc34)CC1)N=C[C@@H]1CCCN1C2=O , GI50 reported as 176 nM

Entry COc1cc2c(cc1OCCCNC(=O)/C=C1/C[C@H]3C=Nc4cc(OCc5ccccc5)c(OC)cc4C(=O)N3C1)NC(=O)[C@@H]1CCCN1C2=O , GI50 reported as 60300 nM

Entry COc1cc(C(C)c2ccc3c(ccn3C)c2)cc(OC)c1OC (stereo not drawn) , GI50 reported as 27.6 nM
